Where these numbers come from: patent EP4711365A1

Item-by-item account of Tmax
experiment notes: Pharmacokinetic assay in Wistar rats, oral
stated conditions: rat, plasma, 30 mg/kg

compound | Tmax / h
CCc1nonc1C(=O)N[C@H](C(=O)Nc1ncc([C@@H](COC)N2CC(F)(F)CNC2=O)s1)[C@H]1CC[C@H](C)CC1 [Example 556] | 2
C[C@H]1CC[C@H]([C@H](NC(=O)C2(F)CC2)C(=O)Nc2ncc([C@@H](CN3CCC(F)(F)CC3)N3CC(F)(F)CNC3=O)s2)CC1 [Example 763] | 4
[2H]C([2H])([2H])C([2H])([2H])n1nccc1C(=O)N[C@H](C(=O)Nc1ncc([C@@H](CN2CCOCC2)N2CC(F)(F)CCC2=O)s1)[C@H]1CC[C@H](C)CC1 [Example 624] | 1
[2H]C([2H])([2H])C([2H])([2H])n1nccc1C(=O)N[C@H](C(=O)Nc1ncc([C@@H](CN2C[C@@H](C)O[C@H](C)C2)N2CC(F)(F)CCC2=O)s1)[C@H]1CC[C@H](C)CC1 [Example 857] | 2
C[C@H]1CC(F)(F)CCN1C[C@H](c1cnc(NC(=O)[C@@H](NC(=O)C2(F)CC2)[C@H]2CC[C@H](C)CC2)s1)N1CC(F)(F)CNC1=O [Example 764] | 4
C[C@H]1COCCN1C[C@H](c1cnc(NC(=O)[C@@H](NC(=O)C2(F)CC2)[C@H]2CC[C@H](C)CC2)s1)N1CC(F)(F)CNC1=O [Example 1014] | 4
[2H]C([2H])([2H])C([2H])([2H])n1nccc1C(=O)N[C@H](C(=O)Nc1ncc([C@@H](CN2C[C@H](C)O[C@@H](C)C2)N2CC(F)(F)CCC2=O)s1)[C@H]1CC[C@H](C)CC1 [Example 854] | 1
C[C@H]1CC[C@H]([C@H](NC(=O)C2(F)CC2)C(=O)Nc2ncc([C@@H](CN3CCC(C(F)F)CC3)N3CC(F)(F)CNC3=O)s2)CC1 [Example 770] | 4
[2H]C([2H])([2H])C([2H])([2H])n1nccc1C(=O)N[C@H](C(=O)Nc1ncc([C@@H](CN2CCO[C@H](C)C2)N2CC(F)(F)CCC2=O)s1)[C@H]1CC[C@H](C)CC1 [Example 627] | 4
C[C@@H]1CN(C[C@H](c2cnc(NC(=O)[C@@H](NC(=O)C3(F)CC3)[C@H]3CC[C@H](C)CC3)s2)N2CC(F)(F)CNC2=O)CCO1 [Example 1012] | 2
[2H]C1([2H])NC(=O)N([C@H](COC)c2cnc(NC(=O)[C@@H](NC(=O)OC3CC3)[C@H]3CC[C@H](C)CC3)s2)C([2H])([2H])C1(F)F [Example 559] | 2
